Taken from PubChem BioAssay (NCI).

# System: MOLT-4 leukemia
# Test Method Notes: NCI tumour cell line growth inhibition, 48 h
Measured Parameter: TGI

Below, each entry is followed by its recorded TGI result.
{"columns": ["Molecule", "Value Observed"],
 "data": [
  ["COCCOC(=O)C1=C(C)NC2=C(C(=O)CC(c3ccccc3OC)C2)C1c1cccc(O)c1 (stereo not given)", "> 77.6 µM"],
  ["Cn1c(CCC#N)nc2ccc(Br)cc2c1=O", "> 100 µM"],
  ["COC(=O)c1ccccc1NC(=O)/C(=N\\NC(C)(C)C)C(C#N)c1nc(-c2ccc([N+](=O)[O-])cc2)cs1 (stereo not given)", "> 100 µM"],
  ["CS(=O)(=O)CCNCc1ccc(-c2ccc3ncnc(Nc4ccc(OCc5cccc(C(F)(F)F)c5)cc4)c3c2)o1", "> 20.9 µM"]
]}

Let us move to another entry and its TGI.
// TGI value for Cc1ccc2c(c1)NC(=O)CCSSCCC(=O)N2 : > 100 µM
